Biological target: T1, cynomolgus complement C3b protein (cynomolgus monkey (Macaca fascicularis))
T1 construct: also called cyno C3b; cynoC3b
Assay: SPR (Biacore T100), C3b captured by anti-C3d antibody, IgG as analyte, 1:1 model
So I've got a bunch of binders here, and I need their Kd values.
Report the figure in nM without appending any unit label.

Form: binder = MOR09611 IgG (antibody, V domains shown, Germlined human IgG1 with leucines 234 and 235 changed to alanines, kappa; also called antibody 9611) VH: EVQLVESGGGLVQPGGSLRLSCAASGFTFSSYWMTWVRQAPGKGLEWVSSIKIKPDGYAASVKGRFTISRDNSKNTLYLQMNSLRAEDTAVYYCARLFYQYFARMDYWGQGTLVTVSS VL: DIQMTQSPSSLSASVGDRVTITCRASQDISNYLNWYQQKPGKAPKLLIYAASNLQSGVPSRFSGSGSGTDFTLTISSLQPEDFATYYCQQHDTFRPTFGQGTKVEIKR ; Kd = 0.0183

Form: binder = MOR09675 IgG (antibody, V domains shown, Germlined human IgG1 with leucines 234 and 235 changed to alanines, kappa; also called antibody 9675) VH: EVQLVQSGAEVKKPGASVKVSCKASGYTFTGYYINWVRQAPGQGLEWMGIISPNQGTTGYAQKFQGRVTMTRDTSISTAYMELSSLRSEDTAVYYCARGNYDHLDYWGQGTLVTVSS VL: DIQMTQSPSSLSASVGDRVTITCRASQGISNYLNWYQQKPGKAPKLLIYDASTLQSGVPSRFSGSGSGTDFTLTISSLQPEDFATYYCQQDWHTLPVTFGQGTKVEIKR ; Kd = 0.202

Data provenance is patent US20100291106A1.
